Every entry's value here was drawn from patent US20250320312A1.

This listing pairs binders with measured OD450.
Target: T1, Peptide 8: Biotin-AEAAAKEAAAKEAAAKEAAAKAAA-Tyr-acid (N-terminal biotin; C-terminal acid)
T1 construct: control peptide without PC
T1 peptide: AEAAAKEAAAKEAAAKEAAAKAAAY
Test: scFv ELISA
Kindly answer with a numeric value in OD450, unit omitted.

// solved cases for OD450 follow
>>> value("PcOxP_DB03_G06 (scFv, V domains shown, scFv in periplasmic extract) VH: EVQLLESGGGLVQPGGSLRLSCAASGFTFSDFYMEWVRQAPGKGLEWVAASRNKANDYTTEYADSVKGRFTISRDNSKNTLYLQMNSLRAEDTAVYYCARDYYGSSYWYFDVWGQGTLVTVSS VL: DIQMTQSPSSLSASVGDRVTITCTASESLYSSKHKVHYLAWYQQKPGKAPKLLIYGASNRYIGVPSRFSGSGSGTDFTLTISSLQPEDFATYYCAQFYEYPLTFGGGTKVEIK")
0.06
>>> value("PcOxP_DB01_H04 (scFv, V domains shown, scFv in periplasmic extract) VH: EVQLLESGGGLVQPGGSLRLSCAASGFAFSDFYMEWVRQAPGKGLEWVAASRNKANDYTTEYADSVKGRFTISRDNSKNTLYLQMNSLRAEDTAVYYCARDYYGSHYWYFDVWGQGTLVTVSS VL: DIQMTQSPSSLSASVGDRVTITCTASESLYSSKHKVHYLAWYQQKPGKAPKLLIYGASNLQSGVPSRFSGSGSGTDFTLTISSLQPEDFATYYCAQFYYYPLTFGGGTKVEIK")
0.07

Next, consider the following binder.
Just so you know, measured OD450 for PcOxP_DB03_F10 (scFv, V domains shown, scFv in periplasmic extract) VH: EVQLLESGGGLVQPGGSLRLSCAASGFTFSDHYMEWVRQAPGKGLEWVAASRNSGNSYTTEYADSVKGRFTISRDNSKNTLYLQMNSLRAEDTAVYYCARDYYGSSYWYFDVWGQGTLVTVSS VL: DIQMTQSPSSLSASVGDRVTITCTASESLYSSKHSVHYLAWYQQKPGKAPKLLIYGASNRFIGVPSRFSGSGSGTDFTLTISSLQPEDFATYYCAQFYSYPLTFGGGTKVEIK came out at 0.07
